# protocol.description: NCI Yeast Anticancer Drug Screen. Data for the bub3 strain (AID 167)
# study.conditions: S. cerevisiae bub3 mutant strain, stronger effect = higher value; at 50.0 µM unless noted
About 79,000 compounds went through this panel and 15% of them were active in at least one assay; those are over-represented in the sample as a whole.
recorded.metric: growth inhibition (%)
A number alone suffices; assume %.

What value of measured growth inhibition is listed for O=C1OC2C(O)C(CO)OC2n2c1cc(=O)[nH]c2=O (stereo not drawn) ? 3.5

growth inhibition lookup needed for COc1ccc(-n2c(CCC(=O)O)nc3c2C(=O)c2ccccc2C3=O)cc1 , thanks. 14.7

Can you look up the measured growth inhibition of O=C(O)C1Cc2c([nH]c3ccccc23)CN1 (stereo not drawn) for me? 24.1

Look up growth inhibition: COc1ccc(C2OC3=C(Nc4cc(C)c(C)cc4N3)C2=O)cc1 (stereo not drawn) -22.3

What measured growth inhibition goes with O=c1cnn2c(n1)OC1C(O)C(CO)OC12 (stereo not drawn) ? -11.7

Would you kindly share the measured growth inhibition for O=C1C2C3ON(c4ccccc43)C2C(=O)N1c1ccccc1 (stereo not drawn) ? 3.6

Tell me the measured growth inhibition of CC/C=C/C(CC)(C(=O)OCC)C(=O)OCC , please. -16.3

Would you kindly share the measured growth inhibition for [S-]c1n[n+](-c2ccccc2)cs1 ? -23

====

# protocol.description: NCI Yeast Anticancer Drug Screen. Data for the mlh1 rad18 strain (AID 175)
# study.conditions: S. cerevisiae mlh1 rad18 strain growth inhibition, stronger effect = higher value; at 50.0 µM unless noted
The panel holds about 79,000 compounds, 15% with a hit somewhere; the sample as a whole holds those more often. Where a SMILES comes first, the peptide text is derived from it. [ ]: non-standard residue; d: D form. The star is where a group is joined. NMeF = CN[C@@H](Cc1ccccc1)C(=O)O; NMeV = CN[C@H](C(=O)O)C(C)C; Boc = CC(C)(C)OC(=O)*; OBn = c1ccc(CO*)cc1
For each entry below, report its growth inhibition value.
Number only, in %; omit the unit.

Which measured growth inhibition value corresponds to NC(=S)c1ccc2ccccc2c1 ? 9.2

Field request: growth inhibition | item: OCC(O)C1OC(O)C(O)C(O)C1O (configuration not stated) 10.4

Quick one: growth inhibition of COc1cc(N(Cc2ccc3nc(OC)c(OC)nc3c2)Cc2ccc3nc(OC)c(OC)nc3c2)cc(OC)c1OC ? -14.6

Param item = CC(=O)OC1=C2OC(=O)C3(C2C=CC=C1)C1C=CC=CC13 (configuration not stated) ; retrieve measured growth inhibition. -1.95

Look up growth inhibition: Clc1ccc(OCC(COc2ccccc2)Oc2nc(-c3ccccc3)nc(-c3ccccc3)n2)cc1 (configuration not stated) -17.1

# get_value(readout='growth inhibition', item= COc1ccccc1N=Nc1c(O)n(-c2ccccc2OC)c(=S)n(-c2ccccc2)c1=O ) 16.9

Quick check: growth inhibition of COc1ccc(/C(=N/N)C(C)(C)C)cc1 ? -1.9

Quick one: growth inhibition of O=C(N/N=C/c1ccc(Cl)cc1)c1cccc([N+](=O)[O-])c1 ? -5.7

Give the measured growth inhibition of CC(NC(C#N)CC12CC3CC(CC(C3)C1)C2)c1ccccc1 (configuration not stated) . -30.6

I am curious: what growth inhibition value has been reported for O=S(=O)(Nc1cccc(O)c1)c1ccccc1 ? 13.2

Please look up its growth inhibition: CC(C)[C@@H](C(=O)N1CCC[C@H]1C(=O)OCc1ccccc1)N(C)C(=O)[C@H](C(C)C)N(C)C(=O)[C@H](Cc1ccccc1)N(C)C(=O)[C@H](NC(=O)OC(C)(C)C)C(C)C (Boc-[dV][NMeF][NMeV][NMeV]P-OBn) -36.3

Requested read-out: growth inhibition. Entry: C=C1C(=O)O[C@@H]2C[C@@H](C)[C@@H]3C=CC(=O)[C@@]3(C)[C@@H](OC(=O)CCCC(=O)O[C@H]3[C@@H]4C(=C)C(=O)O[C@@H]4C[C@@H](C)[C@@H]4C=CC(=O)[C@]43C)[C@H]12 34.9

Would you mind telling me what growth inhibition value was observed for CC1(C)CC(=O)C=C(n2ccccc2=O)C1 ? -1.8

Need growth inhibition of Clc1ccc(N=Nc2nc3ccccc3nc2N=Nc2ccc(Cl)cc2Cl)c(Cl)c1 , thanks. 0.55

Looking for the measured growth inhibition of Clc1nc(-c2ccccc2)ns1 , can you help? -10.4

What does the data say about its growth inhibition? Entry: O=C(Nc1ccc(Cl)cc1Cl)c1cc2nc3ccccc3c(=O)n2c2ccccc12 30.6

For the compound CC(=O)OC/C(=C/C#N)C1CCC2C3CC=C4CC(OC(C)=O)CCC4(C)C3CCC12C (configuration not stated) , what growth inhibition is on record? 8.65
